- study.system: T1, rat APJ receptor (rat, UniProt Q9JHG3 1-377)
- T1 sequence (looked up): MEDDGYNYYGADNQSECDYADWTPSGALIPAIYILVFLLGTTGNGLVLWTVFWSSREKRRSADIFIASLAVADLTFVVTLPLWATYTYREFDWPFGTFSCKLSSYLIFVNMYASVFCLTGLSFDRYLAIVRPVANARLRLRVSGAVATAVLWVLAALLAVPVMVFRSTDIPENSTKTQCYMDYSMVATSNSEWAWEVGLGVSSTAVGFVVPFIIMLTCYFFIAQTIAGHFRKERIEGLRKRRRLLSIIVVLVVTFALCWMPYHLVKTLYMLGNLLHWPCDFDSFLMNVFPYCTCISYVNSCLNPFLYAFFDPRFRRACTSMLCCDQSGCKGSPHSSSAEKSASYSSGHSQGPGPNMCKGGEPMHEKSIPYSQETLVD
- assay.procedure: cell-based or functional assay
Non-standard residues stand in square brackets, D forms with d. No end group written: not given here. dBip = N[C@H](Cc1ccc(-c2ccccc2)cc1)C(=O)O; Oic = O=C(O)[C@@H]1C[C@@H]2CCCC[C@@H]2N1; Phe(4-Cl) = N[C@@H](Cc1ccc(Cl)cc1)C(=O)O; Phe(4-I) = N[C@@H](Cc1ccc(I)cc1)C(=O)O; NMeR = CN[C@@H](CCCNC(=N)N)C(=O)O; hArg = N=C(N)NCCCC[C@H](N)C(=O)O; Cha = N[C@@H](CC1CCCCC1)C(=O)O; NMeL = CN[C@@H](CC(C)C)C(=O)O; Nle = CCCC[C@H](N)C(=O)O; Orn = NCCC[C@H](N)C(=O)O
property: EC50 Rat APJ Receptor (pM)
Report as a plain number; the unit pM is understood.

Documented EC50 Rat APJ Receptor of Ac-RQRP[hArg][NMeL]SHKG[Oic][Phe(4-I)]P[dBip]-OH [apelin polypeptide SEQ ID NO: 51] : 1260

The recorded EC50 Rat APJ Receptor for entry Ac-[hArg][hArg]Q[dR]P[dR][NMeL]SHKG[Oic][Phe(4-I)]P[dBip]-OH [apelin polypeptide SEQ ID NO: 20] equals 706

According to the records, this binder [Orn]F[hArg][NMeR]Q[hArg]P[hArg][Cha]SHKG[Oic][Nle]P[Phe(4-Cl)] [apelin polypeptide SEQ ID NO: 670] displays EC50 Rat APJ Receptor of 254
